Source of measurements: patent US20230078764A1

Test system: human SCD5 (Homo sapiens)
Construct: expressed in transfected cells; host or cells: yeast strain with OLE1 deleted, plasmid-borne human SCD5 (selected in SD-Ura)
Sequence (Q86SK9 1-330): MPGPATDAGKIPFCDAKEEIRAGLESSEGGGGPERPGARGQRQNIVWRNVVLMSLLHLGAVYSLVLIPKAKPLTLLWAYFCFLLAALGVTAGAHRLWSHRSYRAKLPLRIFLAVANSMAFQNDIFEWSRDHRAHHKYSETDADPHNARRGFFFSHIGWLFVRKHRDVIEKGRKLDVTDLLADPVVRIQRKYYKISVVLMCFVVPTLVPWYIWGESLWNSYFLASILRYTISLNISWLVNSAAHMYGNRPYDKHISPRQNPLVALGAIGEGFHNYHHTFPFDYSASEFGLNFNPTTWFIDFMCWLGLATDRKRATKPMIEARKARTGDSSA
Protocol details: Growth inhibition of yeast strain expressing human SCD5 as sole desaturase (OLE1 deleted), OD600 readout
Format: cell-based
Test settings: yeast strain expressing human SCD5 as sole desaturase; growth (OD600) after 40 h at 30° C.; read-out: SCD5 IC50
Listed below: IC50 values for each entry.

Cn1cc(C(=O)Nc2ccc(Cc3cc(C#N)ccc3F)cn2)ccc1=O: 0.99 µM

Query block: Query the reported IC50 for human SCD5 (Homo sapiens); item: COC(c1cccc(F)c1)c1cnc(NC(=O)C2=NN(C)C(=O)CC2)s1 (centres unmarked)
Result block: 27.9 µM

Query block: human SCD5 (Homo sapiens) / IC50 / "Cn1nc(C(=O)Nc2ncc(Cc3cccc(Cl)c3)s2)ccc1=O" : value?
Result block: 0.01 µM

Query block: Form entry - test system: human SCD5 (Homo sapiens); read-out: IC50; compound: "Cc1cc(C(=O)Nc2ccc(Cc3ccc(F)c(C#N)c3)cn2)nn(C)c1=O"
Result block: 0.6 µM

Query block: Enter reported IC50 observed with human SCD5 (Homo sapiens) for "Cn1cc(C(=O)Nc2ccc(Cc3cccc(F)c3)nn2)ccc1=O"
Result block: 2.66 µM

---

Below, each of the compounds is paired with its reported log10 of IC50 value.
Test system: human SCD5 (Homo sapiens, UniProt Q86SK9)
Construct: expressed in transfected cells; host or cells: yeast strain with OLE1 deleted, plasmid-borne human SCD5 (selected in SD-Ura)
Protocol details: Growth inhibition of yeast strain expressing human SCD5 as sole desaturase (OLE1 deleted), OD600 readout
Assay type: cell-based
Test settings: yeast strain expressing human SCD5 as sole desaturase; growth (OD600) after 40 h at 30° C.; read-out: SCD5 IC50
Please note: log10 values; quantity IC50; unit nM.

As a guide, the following entries are already answered.
Cn1nc(C(=O)Nc2ccc(CCOc3ccccc3)cn2)ccc1=O: 4.16
Cn1cc(C(=O)Nc2ccc(Cc3cc(F)cc(Cl)c3)cn2)n(C)c1=O: 1.00
O=C(Nc1ccc(Cc2cccc(F)c2)cn1)c1ncc(Cl)cc1F: 2.57
CC(=O)c1ccc(C(=O)Nc2ccc(Cc3cccc(Cl)c3)cn2)cn1: 2.45
CN1N=C(C(=O)Nc2ccc(Cc3ccc(Cl)c(Cl)c3)cn2)CCC1=O: 1.48

Query block: Need log10 of IC50 of "CN1N=C(C(=O)Nc2ncc(Cc3cccc(Cl)c3)cc2F)CCC1=O" , thanks.
Result block: 4.00

Query block: So what does the record say about log10 of IC50 for "O=C(Nc1ccc(Cc2cccc(Cl)c2)cn1)c1ccc(CCO)nc1" ?
Result block: 1.30

---

Test system: human SCD5 (Homo sapiens)
Construct: expressed in transfected cells; host or cells: yeast strain with OLE1 deleted, plasmid-borne human SCD5 (selected in SD-Ura)
Protocol details: Growth inhibition of yeast strain expressing human SCD5 as sole desaturase (OLE1 deleted), OD600 readout
Type: cell-based
Test settings: yeast strain expressing human SCD5 as sole desaturase; growth (OD600) after 40 h at 30° C.; read-out: SCD5 IC50
Measured pIC50 of individual entries
// pIC50 here means minus log10 of the molar concentration (mol/L)

Query block: Fill blank: measured pIC50 of the compound "CCn1cc(C(=O)Nc2ccc(CC3CCCCC3)cn2)ccc1=O" is ____.
Result block: 5.33

---

Test system: human SCD1 (Homo sapiens)
Construct: expressed in transfected cells; host or cells: yeast strain with OLE1 deleted, plasmid-borne human SCD1 (selected in SD-Ura)
Protocol details: Growth inhibition of yeast strain expressing human SCD1 as sole desaturase (OLE1 deleted), OD600 readout
Assay type: cell-based
Test settings: yeast strain expressing human SCD1 as sole desaturase; growth (OD600) after 40 h at 30° C.; read-out: SCD1 IC50
Quantity name: log10 of IC50 (log10 of the value in µM)
The common logarithm of IC50 in µM is what is listed.

CN1N=C(C(=O)Nc2ccc(COc3ccc(F)c(Cl)c3)cn2)CCC1=O: 1.37

Query compound follows.
Query block: Can you share its log10 of IC50? I mean this compound: "Cn1nc(C(=O)Nc2ccc(Cc3ccc(F)c(Cl)c3)nn2)ccc1=O"
Result block: 0.78

---

Test system: human SCD1 (Homo sapiens, UniProt O00767)
Construct: expressed in transfected cells; host or cells: yeast strain with OLE1 deleted, plasmid-borne human SCD1 (selected in SD-Ura)
Protocol details: Growth inhibition of yeast strain expressing human SCD1 as sole desaturase (OLE1 deleted), OD600 readout
Assay type: cell-based
Test settings: yeast strain expressing human SCD1 as sole desaturase; growth (OD600) after 40 h at 30° C.; read-out: SCD1 IC50
# pIC50 listing for each entry below
Please express pIC50 as -log10 of the molar concentration.

Cn1nc(C(=O)Nc2ccc(Cc3cc(C(F)(F)F)ccn3)cn2)ccc1=O: 4.40
O=C(O)c1ccc(C(=O)Nc2ccc(Cc3cccc(Cl)c3)cn2)nn1: 5.85

Query block: For the record "Cc1ncc(C(=O)Nc2ccc(Cc3cc(F)cc(F)c3)cn2)cn1" , what value of pIC50 is listed for human SCD1 (Homo sapiens, UniProt O00767)?
Result block: 6.17

Query block: What is its pIC50 for human SCD1 (Homo sapiens, UniProt O00767)? Entry: "Cn1nc(C(=O)Nc2ccc(Cc3ccc(F)c(Cl)c3)cn2)ccc1=O"
Result block: 7.22

---

Test system: human SCD1 (Homo sapiens, UniProt O00767)
Construct: expressed in transfected cells; host or cells: yeast strain with OLE1 deleted, plasmid-borne human SCD1 (selected in SD-Ura)
Protocol details: Growth inhibition of yeast strain expressing human SCD1 as sole desaturase (OLE1 deleted), OD600 readout
Format: cell-based
Test settings: yeast strain expressing human SCD1 as sole desaturase; growth (OD600) after 40 h at 30° C.; read-out: SCD1 IC50
Quantity name: pIC50
In textbook form, pIC50 equals minus log to base ten of the concentration in mol/L.

CCn1ccc(C(=O)Nc2ccc(Cc3ccc(F)c(F)c3)cn2)n1 [Compound 98]: 5.53

Query block: So what's the measured pIC50 for this one? CN1N=C(C(=O)Nc2ccc(COc3cccc(F)c3)cn2)CCC1=O [Compound 260]
Result block: 5.34

---

Test system: human SCD5 (Homo sapiens)
Construct: expressed in transfected cells; host or cells: yeast strain with OLE1 deleted, plasmid-borne human SCD5 (selected in SD-Ura)
Protocol details: Growth inhibition of yeast strain expressing human SCD5 as sole desaturase (OLE1 deleted), OD600 readout
Format: cell-based
Test settings: yeast strain expressing human SCD5 as sole desaturase; growth (OD600) after 40 h at 30° C.; read-out: SCD5 IC50
Quantity name: pIC50
Please report pIC50 as the negative decimal logarithm of the molar concentration, giving only the number.

Cn1nc(C(=O)Nc2ccc(Cc3ccc(F)c(C#N)c3)cn2)ccc1=O: 7.21
Cc1ccc(NC(=O)c2ccc(Cc3cccc(F)c3)cn2)nn1: 6.64

Query block: Looking for the measured pIC50 of "CCn1ccc(C(=O)Nc2ccc(Cc3cc(F)cc(Cl)c3)cn2)n1" , can you help?
Result block: 8.00

Query block: // pIC50 lookup, key: "Cn1nc(C(=O)Nc2ccc(C3(c4ccc(F)c(F)c4)CC3)cn2)ccc1=O"
Result block: 5.85

Query block: Field request: pIC50 | item: "Cc1cc(C(=O)Nc2ccc(Cc3cc(F)cc(F)c3)cn2)cnc1C#N"
Result block: 8.00

Query block: Param item = "CN1N=C(C(=O)Nc2ccc(Cc3cccc(C4CC4)c3)nn2)CCC1=O" ; retrieve measured pIC50.
Result block: 5.19

Query block: I would be grateful if you could share the reported pIC50 for CN1N=C(C(=O)Nc2ccc(Cc3ccccc3)nn2)CCC1=O [Compound 186] .
Result block: 4.90

---

Test system: human SCD1 (Homo sapiens, UniProt O00767)
Construct: expressed in transfected cells; host or cells: yeast strain with OLE1 deleted, plasmid-borne human SCD1 (selected in SD-Ura)
Sequence (O00767 1-359): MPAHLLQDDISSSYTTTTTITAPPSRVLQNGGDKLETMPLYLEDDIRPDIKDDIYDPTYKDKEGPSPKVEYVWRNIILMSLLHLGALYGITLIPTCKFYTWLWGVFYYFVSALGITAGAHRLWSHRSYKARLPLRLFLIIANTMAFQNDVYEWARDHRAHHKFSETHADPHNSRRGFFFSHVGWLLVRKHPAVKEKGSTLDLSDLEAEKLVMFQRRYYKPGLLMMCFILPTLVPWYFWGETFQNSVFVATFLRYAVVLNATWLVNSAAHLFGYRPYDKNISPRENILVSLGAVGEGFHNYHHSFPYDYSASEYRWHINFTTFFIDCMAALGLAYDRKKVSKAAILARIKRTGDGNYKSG
Protocol details: Growth inhibition of yeast strain expressing human SCD1 as sole desaturase (OLE1 deleted), OD600 readout
Assay type: cell-based
Test settings: yeast strain expressing human SCD1 as sole desaturase; growth (OD600) after 40 h at 30° C.; read-out: SCD1 IC50
pIC50 values by entry
Note on units: pIC50 is unitless, being -log10 of a concentration expressed in mol/L.

Answered cases to consult:
CCn1cccc(C(=O)Nc2ccc(Cc3cccc(F)c3)cn2)c1=O: 5.77
CCn1ccc(C(=O)Nc2ccc(Cc3cc(F)cc(F)c3)cn2)n1: 5.96
Cn1cc(C(=O)Nc2ccc(Cc3ccc(F)c(F)c3Cl)cn2)ccc1=O: 7.77
Cc1nccc(C(=O)Nc2ccc(Cc3ccc(F)c(F)c3)cn2)n1: 6.68
O=C(Nc1ccc(Cc2cccc(F)c2)cn1)c1ccc(CO)nc1: 8.00
Cc1ncc(C(=O)Nc2ccc(Cc3cc(F)cc(C#N)c3)cn2)cn1: 4.46
Cn1ccc(C(=O)Nc2ccc(Cc3cc(F)cc(F)c3)cn2)cc1=O: 6.66
Cn1nccc(NC(=O)c2ccc(Cc3cccc(Cl)c3)cn2)c1=O: 5.50

Query block: Entry "CN1N=C(C(=O)Nc2ccc(Oc3ccc(Cl)cc3)cc2)CCC1=O" has what pIC50?
Result block: 4.98

Query block: Entry "CCn1cc(C(=O)Nc2ccc(Oc3cccc(Cl)c3)cn2)ccc1=O" has what pIC50?
Result block: 4.85

Query block: Item under review: "O=C(Nc1ccc(Cc2ccc(F)c(Cl)c2)cn1)c1ccc(CO)nc1" . Reported pIC50?
Result block: 8.00
